Reported log10(IC50) for target or system JAK1-JH1JH2 (Homo sapiens (Human), UniProt P23458), by entry.
Measure Name: log10(IC50) (log10 of the value in nM)

[
  {
    "Cpd Smiles": "COCCNC(=O)c1nc2cnc3[nH]ccc3c2n1[C@H]1CC[C@H](CC#N)CC1",
    "log10(IC50)": 0.04
  },
  {
    "Cpd Smiles": "N#CC[C@H]1CC[C@H](n2c(COC(=O)Nc3ccccc3)nc3cnc4[nH]ccc4c32)CC1",
    "log10(IC50)": -0.22
  },
  {
    "Cpd Smiles": "C[S@](=O)(=NCc1nc2cnc3[nH]ccc3c2n1[C@H]1CC[C@H](CC#N)CC1)c1ccccc1",
    "log10(IC50)": 0.20
  },
  {
    "Cpd Smiles": "N#CCC12CCC(n3c(CC(=O)NCC4CCCCC4)nc4cnc5[nH]ccc5c43)(CC1)CC2",
    "log10(IC50)": 0.88
  },
  {
    "Cpd Smiles": "COCC/C(=N/O)NCc1nc2cnc3[nH]ccc3c2n1[C@H]1CC[C@H](CC#N)CC1",
    "log10(IC50)": -0.15
  },
  {
    "Cpd Smiles": "N#CC[C@H]1CC[C@H](n2c(CC(=O)N3CCS(=O)(=O)CC3)nc3cnc4[nH]ccc4c32)CC1",
    "log10(IC50)": -0.52
  },
  {
    "Cpd Smiles": "CCOP(=O)(Cc1ccc(NC(=O)Cc2nc3cnc4[nH]ccc4c3n2[C@H]2CC[C@H](CC#N)CC2)cc1)OCC",
    "log10(IC50)": -0.22
  }
]

---

- Subject Of Test: JAK2-JH1JH2 (Homo sapiens (Human))
- Sequence (O60674 532-1132): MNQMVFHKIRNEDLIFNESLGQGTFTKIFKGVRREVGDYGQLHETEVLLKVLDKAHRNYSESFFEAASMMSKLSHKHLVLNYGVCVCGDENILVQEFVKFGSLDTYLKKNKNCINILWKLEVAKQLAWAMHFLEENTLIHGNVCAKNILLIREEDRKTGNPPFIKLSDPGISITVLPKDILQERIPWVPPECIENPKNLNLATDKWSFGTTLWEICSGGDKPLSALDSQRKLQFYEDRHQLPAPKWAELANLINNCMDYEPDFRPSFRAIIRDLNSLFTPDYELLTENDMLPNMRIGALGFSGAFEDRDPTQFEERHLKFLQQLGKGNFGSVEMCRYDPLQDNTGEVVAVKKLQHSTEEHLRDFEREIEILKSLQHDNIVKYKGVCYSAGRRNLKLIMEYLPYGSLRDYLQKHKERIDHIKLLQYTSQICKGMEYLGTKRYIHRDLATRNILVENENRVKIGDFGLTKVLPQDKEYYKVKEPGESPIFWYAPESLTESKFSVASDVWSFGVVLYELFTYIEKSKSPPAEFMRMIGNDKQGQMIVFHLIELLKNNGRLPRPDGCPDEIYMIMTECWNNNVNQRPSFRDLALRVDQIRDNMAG
pIC50: −log10 of the molar value.
Listing: pIC50 of selected compounds
Measure Name: pIC50

[
  {
    "Compound": "CC(C)(O)C1CCN(C(=O)Cc2nc3cnc4[nH]ccc4c3n2[C@H]2CC[C@H](CC#N)CC2)CC1 [Ex. 93]",
    "Measure Name": "pIC50",
    "Data Value": 7.92
  },
  {
    "Compound": "[H]/N=C(/c1ccccc1)N(O)Cc1nc2cnc3[nH]ccc3c2n1[C@H]1CC[C@H](CC#N)CC1 [Ex. 17B]",
    "Measure Name": "pIC50",
    "Data Value": 8.35
  },
  {
    "Compound": "N#CC[C@H]1CC[C@H](n2c(CNC(=O)Oc3ccccc3)nc3cnc4[nH]ccc4c32)CC1 [Ex. 46]",
    "Measure Name": "pIC50",
    "Data Value": 7.84
  },
  {
    "Compound": "CC(=N)NCc1nc2cnc3[nH]ccc3c2n1[C@H]1CC[C@H](CC#N)CC1 [Ex. 86]",
    "Measure Name": "pIC50",
    "Data Value": 7.85
  },
  {
    "Compound": "N#CC[C@H]1CC[C@H](n2c(CNC(=O)C3CCCCC3)nc3cnc4[nH]ccc4c32)CC1 [Ex. 139]",
    "Measure Name": "pIC50",
    "Data Value": 7.17
  },
  {
    "Compound": "N#CC[C@H]1CC[C@H](n2c(CC(=O)NC3CC4CCC3C4)nc3cnc4[nH]ccc4c32)CC1 (stereo partly shown) [Ex. 78]",
    "Measure Name": "pIC50",
    "Data Value": 7.95
  },
  {
    "Compound": "N#CC[C@H]1CC[C@H](n2c(COC(=O)NCC3CCCCC3)nc3cnc4[nH]ccc4c32)CC1 [Ex. 146]",
    "Measure Name": "pIC50",
    "Data Value": 7.74
  },
  {
    "Compound": "N#CCC12CCC(n3c(CC(=O)N4CCCCC4)nc4cnc5[nH]ccc5c43)(CC1)CC2 [Ex. 205]",
    "Measure Name": "pIC50",
    "Data Value": 6.31
  },
  {
    "Compound": "N#CC[C@H]1CC[C@H](n2c(C(=O)NC3CCOCC3)nc3cnc4[nH]ccc4c32)CC1 [Ex. 178]",
    "Measure Name": "pIC50",
    "Data Value": 7.22
  },
  {
    "Compound": "N#CCC12CCC(n3c(CC(=O)Nc4ccccc4)nc4cnc5[nH]ccc5c43)(CC1)CC2 [Ex. 207]",
    "Measure Name": "pIC50",
    "Data Value": 6.70
  },
  {
    "Compound": "CNC(=O)c1nc2cnc3[nH]ccc3c2n1[C@H]1CC[C@H](CC#N)CC1 [Ex. 133]",
    "Measure Name": "pIC50",
    "Data Value": 8.03
  },
  {
    "Compound": "C[Si](C)(C)[C@H]1CC[C@@H](NC(=O)Cc2nc3cnc4[nH]ccc4c3n2[C@H]2CC[C@H](CC#N)CC2)CC1 [Ex. 135]",
    "Measure Name": "pIC50",
    "Data Value": 8.40
  },
  {
    "Compound": "CC(C)(C)OC(=O)NCc1nc2cnc3[nH]ccc3c2n1[C@H]1CC[C@H](CC#N)CC1 [Ex. 158]",
    "Measure Name": "pIC50",
    "Data Value": 7.11
  },
  {
    "Compound": "N#CC[C@H]1CC[C@H](n2c(CNC(=N)C34CC5CC(CC(C5)C3)C4)nc3cnc4[nH]ccc4c32)CC1 [Ex. 156]",
    "Measure Name": "pIC50",
    "Data Value": 7.47
  },
  {
    "Compound": "Cc1cc(-c2nc3cnc4[nH]ccc4c3n2[C@H]2CC[C@H](CC#N)CC2)[nH]n1 [Ex. 81]",
    "Measure Name": "pIC50",
    "Data Value": 8.43
  },
  {
    "Compound": "CC(C)(O)CCNC(=O)Cc1nc2cnc3[nH]ccc3c2n1[C@H]1CC[C@H](CC#N)CC1 [Ex. 59]",
    "Measure Name": "pIC50",
    "Data Value": 8.17
  },
  {
    "Compound": "N#CC[C@H]1CC[C@H](n2c(-c3cnn(CC(=O)NC4CC4)c3)nc3cnc4[nH]ccc4c32)CC1 [Ex. 185]",
    "Measure Name": "pIC50",
    "Data Value": 7.70
  },
  {
    "Compound": "N#CC[C@H]1CC[C@H](n2c(CNC(=O)c3cn[nH]c3)nc3cnc4[nH]ccc4c32)CC1 [Ex. 144]",
    "Measure Name": "pIC50",
    "Data Value": 7.37
  },
  {
    "Compound": "N#CCC12CCC(NC(=O)Cc3nc4cnc5[nH]ccc5c4n3[C@H]3CC[C@H](CC#N)CC3)(CC1)C2 [Ex. 55]",
    "Measure Name": "pIC50",
    "Data Value": 8.54
  },
  {
    "Compound": "N#CC[C@H]1CC[C@H](n2c(C(=O)NCC3CC3)nc3cnc4[nH]ccc4c32)CC1 [Ex. 174]",
    "Measure Name": "pIC50",
    "Data Value": 7.24
  },
  {
    "Compound": "C#Cc1ccc(C(=O)c2ccc(OCc3nc4cnc5[nH]ccc5c4n3[C@H]3CC[C@H](CC#N)CC3)cc2)cc1 [Ex. 130]",
    "Measure Name": "pIC50",
    "Data Value": 7.80
  },
  {
    "Compound": "CC(C)NC(=O)c1nc2cnc3[nH]ccc3c2n1[C@H]1CC[C@H](CC#N)CC1 [Ex. 172]",
    "Measure Name": "pIC50",
    "Data Value": 7.12
  },
  {
    "Compound": "N#CC[C@H]1CC[C@H](n2c(CC(=O)NCCOCCOCCN)nc3cnc4[nH]ccc4c32)CC1 [Ex. 193]",
    "Measure Name": "pIC50",
    "Data Value": 8.00
  },
  {
    "Compound": "N#CC[C@H]1CC[C@H](n2c(CC(=O)NCc3ccncn3)nc3cnc4[nH]ccc4c32)CC1 [Ex. 14]",
    "Measure Name": "pIC50",
    "Data Value": 8.74
  },
  {
    "Compound": "N#CC[C@H]1CC[C@H](n2c(CO/N=C(\\N)C34CC5CC(CC(C5)C3)C4)nc3cnc4[nH]ccc4c32)CC1 [Ex. 152]",
    "Measure Name": "pIC50",
    "Data Value": 7.67
  },
  {
    "Compound": "N#CC[C@H]1CC[C@H](n2c(CC(=O)N3CC(O)C3)nc3cnc4[nH]ccc4c32)CC1 [Ex. 18]",
    "Measure Name": "pIC50",
    "Data Value": 7.45
  },
  {
    "Compound": "CC1(C)CCC(NC(=O)Cc2nc3cnc4[nH]ccc4c3n2[C@H]2CC[C@H](CC#N)CC2)CC1 [Ex. 65]",
    "Measure Name": "pIC50",
    "Data Value": 8.15
  },
  {
    "Compound": "C[Si](C)(C)[C@H]1CC[C@H](NC(=O)Cc2nc3cnc4[nH]ccc4c3n2[C@H]2CC[C@H](CC#N)CC2)CC1 [Ex. 167]",
    "Measure Name": "pIC50",
    "Data Value": 7.68
  },
  {
    "Compound": "N#CC[C@H]1CC[C@H](n2c(Cn3c(C4CC4)noc3=O)nc3cnc4[nH]ccc4c32)CC1 [Ex. 165]",
    "Measure Name": "pIC50",
    "Data Value": 6.92
  },
  {
    "Compound": "N#CC[C@H]1CC[C@H](n2c(CC(=O)N3CCC(O)CC3)nc3cnc4[nH]ccc4c32)CC1 [Ex. 12]",
    "Measure Name": "pIC50",
    "Data Value": 8.04
  },
  {
    "Compound": "N#CC[C@H]1CC[C@H](n2c(-c3ccc(C(=O)c4ccc(CO)cc4)cc3)nc3cnc4[nH]ccc4c32)CC1 [Ex. 121]",
    "Measure Name": "pIC50",
    "Data Value": 7.94
  }
]
